molecular target: human ether-à-go-go-related gene (hERG) potassium channel (human); assay: primary screen, population patch clamp on CHO cells stably expressing hERG; higher = less effect of the substance;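 note: peak tail current of the secondary pulse compared with the same well before compound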
Sequence (Q12809 whole entry, looked up): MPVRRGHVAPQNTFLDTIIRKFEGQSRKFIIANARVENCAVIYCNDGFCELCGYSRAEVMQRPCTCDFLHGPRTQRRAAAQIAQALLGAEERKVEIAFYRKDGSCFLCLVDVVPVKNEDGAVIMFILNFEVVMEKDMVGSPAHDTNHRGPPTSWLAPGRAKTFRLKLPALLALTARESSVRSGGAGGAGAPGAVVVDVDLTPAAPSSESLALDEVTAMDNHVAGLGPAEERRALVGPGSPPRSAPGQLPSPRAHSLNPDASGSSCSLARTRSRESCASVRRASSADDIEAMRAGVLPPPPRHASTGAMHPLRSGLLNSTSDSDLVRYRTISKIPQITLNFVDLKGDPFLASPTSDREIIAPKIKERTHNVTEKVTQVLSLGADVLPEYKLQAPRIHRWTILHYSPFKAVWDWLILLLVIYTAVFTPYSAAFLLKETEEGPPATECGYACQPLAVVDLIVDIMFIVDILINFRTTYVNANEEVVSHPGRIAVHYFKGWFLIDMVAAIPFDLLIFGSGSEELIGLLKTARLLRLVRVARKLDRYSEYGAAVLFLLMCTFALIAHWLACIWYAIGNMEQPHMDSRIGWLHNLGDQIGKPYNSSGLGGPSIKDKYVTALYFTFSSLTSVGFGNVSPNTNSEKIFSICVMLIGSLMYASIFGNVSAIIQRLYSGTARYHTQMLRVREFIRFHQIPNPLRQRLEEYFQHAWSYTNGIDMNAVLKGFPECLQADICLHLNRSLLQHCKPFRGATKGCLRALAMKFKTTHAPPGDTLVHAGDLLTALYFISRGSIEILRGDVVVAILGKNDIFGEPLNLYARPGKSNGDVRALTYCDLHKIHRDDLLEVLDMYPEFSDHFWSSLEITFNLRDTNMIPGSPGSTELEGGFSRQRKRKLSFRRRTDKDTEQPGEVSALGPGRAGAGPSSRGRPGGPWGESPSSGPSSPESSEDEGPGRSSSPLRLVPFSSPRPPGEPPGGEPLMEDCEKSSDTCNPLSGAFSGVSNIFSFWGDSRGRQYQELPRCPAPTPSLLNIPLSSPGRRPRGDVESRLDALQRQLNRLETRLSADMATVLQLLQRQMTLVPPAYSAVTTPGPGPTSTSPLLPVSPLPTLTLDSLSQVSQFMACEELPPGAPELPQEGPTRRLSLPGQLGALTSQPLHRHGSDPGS
About 14,000 (4.5%) of roughly 310,000 compounds showed an effect of 50% or more. The effect is printed as a negative number. This is one part of a sample in which strong results are shown more often than they occur.
property-name: hERG current change (%, negative = inhibition) at 10uM
Mention the unit after the number when you answer.

Looking up CCN(CC(=O)NCc1ccc(F)cc1)C(=O)CN1CCN(c2ccccc2OC)CC1 , I found its hERG current change (%, negative = inhibition) at 10uM recorded as -61.4%

hERG current change (%, negative = inhibition) at 10uM reported for this molecule Cc1ccccc1N1CCN(CC(=O)NCc2ccc(Cl)cc2)CC1 : -27%

For CCN(CC(=O)NCc1ccc(F)cc1)C(=O)CN1CCN(c2cc(Cl)ccc2C)CC1 the molecule record lists hERG current change (%, negative = inhibition) at 10uM as -73.1%

Documented hERG current change (%, negative = inhibition) at 10uM of Cc1nc2ccccc2nc1Nc1cccc(Cl)c1 : 9.24%

What the record says about COc1ccc(C(=O)CN2CCN(c3ccc(F)cc3)CC2)cc1 : hERG current change (%, negative = inhibition) at 10uM is -38.3%

// sample CCOc1ccccc1N1CCN(C(=O)NCc2ccc(F)cc2)CC1 , its hERG current change (%, negative = inhibition) at 10uM was -9.29%

For reference, reported hERG current change (%, negative = inhibition) at 10uM for Cc1ccc(C)c(Nc2cc(C)nc3ccccc23)c1 stands at -49.5%

Item: Cc1cc(C(=O)Nc2ccccc2Cl)c2ccccc2n1 | hERG current change (%, negative = inhibition) at 10uM: -2.16%

Record Cc1cc(C)nc(Nc2cccc(Cl)c2)n1.Cl . Reported hERG current change (%, negative = inhibition) at 10uM: 21.8%

The reported hERG current change (%, negative = inhibition) at 10uM of the molecule O=C(O)c1csc(Cc2ccccc2)n1 was 15.1%

Consider COCCN(CCOC)S(=O)(=O)c1ccc(OC)cc1 . Its measured hERG current change (%, negative = inhibition) at 10uM is 8.79%
